Reported IC50 is given for each of the following compounds.
# Tested on: P. yoelii liver stage in HepG2-A16-CD81EGFP, imaging
# assay_remarks: exo-erythrocytic parasite development inhibition – imaging, Malaria Box, P. yoelii, HepG2-A16-CD81EGFP, dose response (AID 602156);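 further: infected cells exposed to compound for 48 hours before fixation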
Active and inactive are the calls of the source. How the calls were made is not given here.

CCc1noc(C)c1C(=O)NCCN1Cc2ccccc2OC(c2ccsc2)C1 (stereo not drawn)    > 10000 nM (inactive)
CC(=O)Nc1cccc(-c2cncc(-c3ccc(C(=O)O)cc3)n2)c1    > 10000 nM (inactive)

Item: CN(C)CCCN(Cc1cc2cc3c(cc2[nH]c1=O)OCO3)C(=S)Nc1cccc(Cl)c1 | IC50: 818 nM

// sample Cc1nc([P+](c2ccccc2)(c2ccccc2)c2ccccc2)c(N2CCCCC2)o1 , its IC50 was 82.4 nM

----------
# Test system: P. yoelii liver stage in HepG2-A16-CD81EGFP, imaging
# assay_remarks: exo-erythrocytic parasite development inhibition – imaging, Malaria Box, P. yoelii, HepG2-A16-CD81EGFP, dose response (AID 602156);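 further: infected cells exposed to compound for 48 hours before fixation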
Activity calls are given as the source filed them. No rule for the calls is given here.
// allowed return values: label 1 = active, label 0 = inactive

Known results for compounds:
CC(c1nc2ccc(Cl)cc2c(=O)n1C)N1CCN(S(=O)(=O)c2cccc3ccccc23)CC1 (stereo not given)    label 1
Cc1cccc(-c2cc3nc(C)c(C)c(=O)n3[nH]2)c1    label 1
CCOC(=O)c1ccc(NC(=O)CSc2nc(NCc3ccccc3)c3ccccc3n2)cc1    label 1
Cc1nc([P+](c2ccccc2)(c2ccccc2)c2ccccc2)c(SCc2ccccc2)o1    label 1
CC(=O)N(C)C1=C(N2CCCC2)C(=O)c2ccccc2C1=O    label 1

Attention now shifts to the item below.
[Q] Tell me the assay call for COC(=O)c1cc(NC(=S)NC(=O)c2c(OC)cccc2OC)cc(C(=O)OC)c1 please.
[A] label 0

----------
# Tested on: P. yoelii liver stage in HepG2-A16-CD81EGFP, imaging
# assay_remarks: exo-erythrocytic parasite development inhibition – imaging, Malaria Box, P. yoelii, HepG2-A16-CD81EGFP, dose response (AID 602156); call rule not given here;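 further: infected cells exposed to compound for 48 hours before fixation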
Pick one and only one: Yes = active, No = inactive

[Q] Just curious, what result did COc1cccc(N2C(N)=NC(N)=NC2(C)C)c1 get here?
[A] Yes

----------
# Tested on: P. yoelii liver stage in HepG2-A16-CD81EGFP, imaging
# assay_remarks: exo-erythrocytic parasite development inhibition – imaging, Malaria Box, P. yoelii, HepG2-A16-CD81EGFP, dose response (AID 602156);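 further: infected cells exposed to compound for 48 hours before fixation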
The source made the active and inactive calls. The rule behind the calls is not given here.
Permitted responses: 1 (yes) = active, 0 (no) = inactive

Some solved entries appear below for comparison.
Fc1ccc2nc(Nc3nc(-c4ccccn4)cs3)sc2c1    1 (yes)
CCCCNC(=O)C1CCC(CN(Cc2c(Cl)cccc2Cl)S(=O)(=O)c2ccc(Br)cc2)CC1 (configuration not stated)    1 (yes)
COc1cc(C(=O)NCCc2ccccn2)ccc1OC1CCN(CC(c2ccccc2)c2ccccc2)CC1    1 (yes)
Cc1nc2ccc(NC(=O)C3CC3)cc2c(=O)n1Cc1ccc(Cl)cc1    0 (no)
Nc1ccc(N2CCCCCC2)cc1    1 (yes)
Cc1ccc(OCC(=O)Nc2cccc(-c3nc4ncccc4o3)c2)cc1C    0 (no)
C[C@@H]1C[C@@H]([C@H](O)CC2CC(=O)NC(=O)C2)C(=O)[C@@H](C)C1    1 (yes)
Cc1ccc(C2Sc3ccccc3NC3=C2C(=O)c2ccccc23)cc1 (configuration not stated)    1 (yes)
COc1ccc(CN2CCOc3ccc(C(C)(O)CN(C)C)cc3C2)cc1C (configuration not stated)    1 (yes)
COc1cc(C(=O)Nc2ccc3nc4n(c(=O)c3c2)CCCCC4)cc(OC)c1OC    0 (no)

[Q] Assay outcome for c1ccc(-c2cc(N3CCN(c4ccccn4)CC3)nc(-c3ccccn3)n2)nc1 : what was it?
[A] 1 (yes)

[Q] # outcome recorded in this test, key = O=C1Nc2ccccc2C12Nc1ccccc1-c1nc3ccccc3n12 (configuration not stated)
[A] 0 (no)

[Q] What outcome does the record of this test show for c1ccc(-c2ccc(-c3ccccn3)nc2)nc1 ?
[A] 1 (yes)

[Q] # outcome recorded in this test, key = CCCc1ccc(C(=O)NC(=O)c2ccccc2O)cc1
[A] 1 (yes)

[Q] // return assay outcome for COc1cccc(NC(=O)Cn2c(C)c(C#N)c3ccccc32)c1
[A] 0 (no)

[Q] For CCCCCc1ccc(OCCCC[n+]2cccc(C)c2)c(CCCCC)c1 , what call appears in the results of this test?
[A] 1 (yes)

[Q] State the result this test recorded for CCN(CC)CCCC(C)Nc1c2ccc(Cl)cc2nc2ccc(OC)cc12 (configuration not stated) .
[A] 1 (yes)
